These entries and their values trace back to PubChem BioAssay (NCI).

system: PC-3 prostate; test: NCI-60 one-dose screen, 48 h (100 = growth as untreated, 0 = no growth, -100 = all killed); settings: 10 µM unless noted
Compounds without any hit were thinned out: in the full panel of roughly 83,000, 20% have a hit.
Property: growth; scope: individual compounds
Supply the numeric figure in %, leaving out any unit text.

# count of solved cases: 3
>>> df
                                   compound  readout  observedvalue
0  COc1ccc(/C(C)=C(\c2ccc(Cl)cc2)c2ccc(OCCN3CCCCC3)cc2)cc1   growth             41
1  CC1=C(C(=O)Nc2ccccc2)C(c2ccc3c(c2)OCO3)NC(=S)N1 (centres undefined)   growth           95.3
2  CNC1=CC(=O)c2c(C(=O)OC)c(C)[n+]([O-])c(C)c2C1=O   growth           61.9

Now consider a different compound.
Hey, PC-3 prostate data for `O=C(N/N=C/c1cc(Cl)ccc1O)c1ccccc1Nc1ccnc(C(F)(F)F)c1` : growth came out at 32.9

====

Property: growth; scope: individual compounds
system: IGROV1 ovarian; test: NCI-60 one-dose screen, 48 h (100 = growth as untreated, 0 = no growth, -100 = all killed); details: 10 µM unless noted
About 83,000 compounds went through this panel and 20% of them were active in at least one assay; those are over-represented in the sample as a whole.
Supply the numeric figure in %, leaving out any unit text.

The recorded growth for entry `O=C(Nc1ncc(Cc2ccccc2)s1)c1ccc2c(c1)OCCCO2` equals 41.1

====

test system: NCI-H226 lung; assay: NCI-60 one-dose screen, 48 h (100 = growth as untreated, 0 = no growth, -100 = all killed); conditions: 10 µM unless noted
The panel holds about 83,000 compounds, 20% with a hit somewhere; the sample as a whole holds those more often.
Property: growth; scope: individual compounds
Supply the numeric figure in %, leaving out any unit text.

The recorded growth for entry `COc1ccc(/C(C)=C(/c2ccc(OCCCN(C)C)cc2)c2ccc(OC(=O)c3ccccc3)cc2)cc1` equals 102

The recorded growth for entry `COc1ccc(-c2ccc(-c3ccc(C(=N)N)nc3)s2)cc1Cl` equals 77.7

The recorded growth for entry `O=[N+]([O-])c1ccc(-c2cn3nc(-c4c[nH]c5ccccc45)sc3n2)cc1` equals 90.8

The recorded growth for entry `C=C(C)[C@@H]1CC[C@]2(C(N)=O)CC[C@]3(C)[C@H](CC[C@@H]4[C@@]5(C)CC[C@H](OCCC#N)C(C)(C)[C@@H]5CC[C@]43C)[C@@H]12` equals 84.1

The recorded growth for entry `NC(=O)c1c(NC(=O)c2cccc(C(F)(F)F)c2)sc2c1CCC(=O)C2` equals 34.2

The recorded growth for entry `Cc1nnc(-c2ccc3c(c2)nc(/C=C/c2ccccc2)n3C2CCCCC2)o1` equals 104

The recorded growth for entry `CCCCC#Cc1c(I)n(C)c(=O)[nH]c1=O` equals 39.8

The recorded growth for entry `C#CCNC(=O)[C@]1(C)CCC[C@@]2(C)[C@H]1CC=C1C=C(C(C)C)CC[C@@H]12` equals 97.6

====

system: ACHN renal; test: NCI-60 one-dose screen, 48 h; conditions: 10 µM unless noted
About 83,000 compounds went through this panel and 20% of them were active in at least one assay; those are over-represented in the sample as a whole. Activity calls are given as the source filed them. How the source made its calls: active means growth percent below 10; inactive means the rest.
Write down the outcome that applies. Available outcomes: active, inactive

In [3]: df
Out[3]:
                                   compound  classassignment
0  O=C(CSc1nnc(-c2cc(-c3ccccc3)nc3ccccc23)n1-c1ccccc1)Nc1ccc(C(=O)/C=C/c2ccc(Cl)cc2)cc1         inactive
1  Cc1ccc(C(=O)c2ccc(CC(=O)NN3C(=O)c4ccccc4C3=O)n2C)cc1         inactive

Hi team, can someone confirm the assay call for CCCCCCCCCCCCCCCCCC1=NC(C)(C)CN1CC(C)O (stereo unspecified) ?
inactive

Hi team, can someone confirm the assay call for `COc1ccc(NC(=O)Nc2ccc(OCCCCCC(=O)NO)cc2)cc1` ?
inactive

Hi team, can someone confirm the assay call for `Fc1ccc(Cn2cc(CSc3nc4ccccc4o3)nn2)cc1` ?
inactive

====

Property: growth; scope: individual molecules
test system: A498 renal; assay: NCI-60 one-dose screen, 48 h (100 = growth as untreated, 0 = no growth, -100 = all killed); conditions: 10 µM unless noted
Compounds without any hit were thinned out: in the full panel of roughly 83,000, 20% have a hit.
Supply the numeric figure in %, leaving out any unit text.

# count of solved cases: 3
>>> df
                               samplesmiles  observedvalue
0  Cn1cc(-c2ccc(-c3cn(C)c4ccc(Cl)cc34)[nH]2)c2cc(Cl)ccc21           48.6
1  O=C1c2ccccc2C(=O)c2c1cc1c(c2[N+](=O)[O-])OCO1          -44.9
2  Cc1ncc(C(=O)Nc2ccc(CN3CCN(C)CC3)c(C(F)(F)F)c2)cc1C#Cc1cnc(N)c2ncccc12          -6.89

The recorded growth for entry `CC(C)(C)c1cc(Cl)c(O)c(CNCCO)c1` equals 89.4

The recorded growth for entry `Clc1ccccc1-c1cnn2cc(-c3ccccc3)cnc12` equals 72

The recorded growth for entry `CCOC(=O)c1c(C)nc2ccccc2c1/C=C/c1cccs1` equals 84.5

The recorded growth for entry `COc1cc(OC)cc(-c2ccc(-c3ccc(C(=N)N)o3)o2)c1` equals 68.5

====

test system: SF-295 CNS; experiment: NCI-60 one-dose screen, 48 h (100 = growth as untreated, 0 = no growth, -100 = all killed); settings: 10 µM unless noted
This is part of a sample that, as a whole, favours compounds with a hit. Of some 83,000 tested, about 20% had one in any assay.
Property: growth; scope: individual compounds
Supply the numeric figure in %, leaving out any unit text.

# count of solved cases: 2
>>> print(df.to_string())
                               samplesmiles  readout  unitinfo  observedvalue
0  NNCCc1ccc(NC(=O)CCCc2ccc(C(=O)Nc3ccccc3N)cc2)cc1   growth         %             69
1  CC1=C2[C@@H](CC1)[C@]1(C)O[C@@](C3CCCCC3)(C[C@H]1OC(=O)CO)[C@H]2OC(=O)/C=C/c1ccccc1   growth         %           86.5

Now consider a different compound.
The recorded growth for entry `O=C(Nc1cc(Cl)ccc1O)c1cccc(Nc2ccnc(C(F)(F)F)c2)c1` equals 2.92

====

tested on: T-47D breast; experiment: NCI-60 one-dose screen, 48 h (100 = growth as untreated, 0 = no growth, -100 = all killed); details: 10 µM unless noted
This is part of a sample that, as a whole, favours compounds with a hit. Of some 83,000 tested, about 20% had one in any assay.
readout: growth (%)
Supply the numeric figure in %, leaving out any unit text.

>>> df
                               samplesmiles    systemname  readout  observedvalue
0    CCN(CC)Cc1cc(Nc2ccnc3cc(Cl)ccc23)ccc1O  T-47D breast   growth            100
1  CNC(=O)c1cc(Oc2cccc3nc(NC(=O)Nc4cc(C(F)(F)F)ccc4Cl)ccc23)ccn1  T-47D breast   growth           78.1

The recorded growth for entry `C=C(C)[C@@H]1CC[C@]2(COC(C)=O)CC[C@]3(C)[C@H](CC[C@@H]4[C@@]5(C)CCCN(C(C)=O)C(C)(C)[C@@H]5CC[C@]43C)[C@@H]12` equals 10.9

The recorded growth for entry `CC1(C)C(N)=Nc2cc(OCCCN3Cc4ccccc4C3)c(OCC3CC3)cc21` equals 45.8

The recorded growth for entry `S=c1[nH]c(=S)c2c(-c3ccccc3)c(-c3ccccc3)oc2[nH]1` equals 91.4

====

System: NCI-H322M lung
Experiment: NCI-60 one-dose screen, 48 h (100 = growth as untreated, 0 = no growth, -100 = all killed)
Conditions: 10 µM unless noted
Experimental: Growth inhibition of the NCI-H322M human Non-Small Cell Lung tumor cell line is measured as a screen for anti-cancer activity. Cells are grown in 96 well plates and exposed to the test compound for 48 hours. Compounds are tested at a single concentration, which is 10^-5 M for most compounds. The reported endpoint is percent growth (GI% or GIPRCNT), where numbers from 0 - 100% represent growth inhibition, and numbers from -100% - 0 represent cell death. […]
The panel holds about 83,000 compounds, 20% with a hit somewhere; the sample as a whole holds those more often.
readout: growth (%)
Supply the numeric figure in %, leaving out any unit text.

Hey, NCI-H322M lung data for `Cc1cccc[n+]1C1c2ccccc2-c2ccccc21` : growth came out at 107

Hey, NCI-H322M lung data for CC1=CCC(OC(=O)C(C)(C)CC(O)(C(C)O)C(O)C2(C)C=CC(Cc3ccc(C(C)C)cc3)(C(C)C)CC2)(C(C)C)CC1 (centres undefined) : growth came out at 93.7

Hey, NCI-H322M lung data for `CCOC(=O)c1c(C)nc2c(c1N)/C(=C/c1ccc(OC)cc1)C(=O)N2Cc1ccccc1` : growth came out at 74.9

Hey, NCI-H322M lung data for `O=C(NNc1cnccn1)c1nc2cc(F)ccc2n2cccc12` : growth came out at 18
